- Target of assay: Toll-like receptor 4 (Homo sapiens)
- Sequence (O00206 whole entry): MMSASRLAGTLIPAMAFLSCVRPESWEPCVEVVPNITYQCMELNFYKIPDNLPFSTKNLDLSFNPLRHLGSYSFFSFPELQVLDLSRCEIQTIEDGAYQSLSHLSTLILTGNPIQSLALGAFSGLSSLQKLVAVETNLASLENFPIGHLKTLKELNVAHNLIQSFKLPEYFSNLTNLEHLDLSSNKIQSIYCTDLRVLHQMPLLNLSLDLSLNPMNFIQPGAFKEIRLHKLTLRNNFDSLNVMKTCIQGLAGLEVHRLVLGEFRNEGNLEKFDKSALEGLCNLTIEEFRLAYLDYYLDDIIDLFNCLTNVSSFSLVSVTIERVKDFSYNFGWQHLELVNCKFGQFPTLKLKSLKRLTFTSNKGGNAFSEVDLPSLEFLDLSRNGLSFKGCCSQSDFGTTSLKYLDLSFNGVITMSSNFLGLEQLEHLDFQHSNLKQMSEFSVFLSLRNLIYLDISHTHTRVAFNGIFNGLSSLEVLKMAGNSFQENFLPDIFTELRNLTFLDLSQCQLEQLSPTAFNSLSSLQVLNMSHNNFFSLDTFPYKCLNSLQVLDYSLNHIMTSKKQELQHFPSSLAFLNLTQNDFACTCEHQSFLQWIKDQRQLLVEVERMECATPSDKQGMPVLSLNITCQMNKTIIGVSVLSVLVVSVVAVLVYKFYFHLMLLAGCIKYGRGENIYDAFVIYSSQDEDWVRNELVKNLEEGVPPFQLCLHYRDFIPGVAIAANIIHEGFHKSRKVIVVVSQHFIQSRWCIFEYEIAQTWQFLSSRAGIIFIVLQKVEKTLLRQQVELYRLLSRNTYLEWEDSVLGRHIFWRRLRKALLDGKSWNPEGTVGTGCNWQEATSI
- Measurement protocol: Antagonist activity at TLR4 (unknown origin) expressed in human AD293 cells assessed as inhibition of LPS/ATP-stimulated TLR4/NF-kB signaling pathway at 10 uM after 16 hrs by luciferase reporter gene assay
- Type: cell-based
Activity calls are given as the source filed them. The calls are words filed in the database; no cut-off is given here.
Result type: inhibition

>>> value("CC(=O)[C@]1(O)CC[C@]23OC(C)(C)O[C@]24CC=C2C[C@@H](O)CC[C@]2(C)[C@H]4C[C@@H](OC(=O)c2ccc(O)cc2)[C@@]31C")
"inactive"
>>> value("CC(=O)[C@]1(O)CC[C@@]2(O)[C@]1(C)[C@H](OC(=O)/C=C(\\C)C(C)C)C[C@@H]1[C@@]3(C)CC[C@H](O)CC3=CC[C@]12O [CAUDATIN]")
"inactive"
>>> value("COc1ccc(/C=C/C(=O)O[C@H]2CC[C@@]3(C)C(=CC[C@]4(O)[C@@H]3C[C@H]3O[C@H](C)[C@]5(OC(=O)/C=C/c6ccccc6)CC[C@@]4(O)[C@]35C)C2)cc1")
"inactive"
